Study target: HLA-A*1101 (human)
Protocol text: inhibition of radiolabeled probe peptide binding to purified HLA, gel filtration
Protocol conditions: remark: other sources report otherwise
Decision: binding affinity ratio to standard peptide >= 0.002 yields 1, all other cases yield 0.

- Binder: "SSCMGGMNRR"
  Classification: 1
- Binder: "LGFLHSGTAK [p53 peptide … (position 111)]"
  Classification: 0
- Binder: "YGFRLGFLH [p53 peptide … (position 107)]"
  Classification: 1
- Binder: "TCTYSPALNK [p53 peptide … (position 123)]"
  Classification: 1
- Binder: "SSCMGGMNR"
  Classification: 1
- Binder: "KGQSTSRHK [p53 peptide … (position 373)]"
  Classification: 0
- Binder: "TSSSPQPK [p53 peptide TSSSPQPK (position 312)]"
  Classification: 0
- Binder: "VTCTYSPALNK [p53 peptide … (position 122)]"
  Classification: 1
